B1: F-BAR and double SH3 domains protein 1, residues 467 to 528; numbered along this chain, Q86WN1 (parent)
chain: RALPCPAHVVFRYQAGREDELTITEGEWLEVIEEGDADEWVKARNQHGEVGFVPERYLNFPD

Variants of: B1
Assay: abundance fitness (aPCA) (normalised: wild type 0, dead -1); higher = more abundant; growth selection in yeast, the domain comes from the species named
Conditions: Homo sapiens
Would you mind sorting the entries by abundance fitness according to these classes? bottom: < -0.3; middle: ≥ -0.3 and < -0.07; top: ≥ -0.07

- VARIANT SPEC: "D19K"
  GROUP LABEL: "top"
- VARIANT SPEC: "A7C"
  GROUP LABEL: "bottom"
- VARIANT SPEC: "D19R"
  GROUP LABEL: "top"
- VARIANT SPEC: "E39S"
  GROUP LABEL: "top"
- VARIANT SPEC: "D19C"
  GROUP LABEL: "top"
- VARIANT SPEC: "V10E"
  GROUP LABEL: "middle"

*Q* Using the reported abundance fitness, which band applies to `T22A` ?
*A* middle

*Q* Using the reported abundance fitness, which band applies to `Q14N` ?
*A* top

*Q* Using the reported abundance fitness, which band applies to `G35K` ?
*A* middle

*Q* Using the reported abundance fitness, which band applies to `E18R` ?
*A* middle

*Q* Using the reported abundance fitness, which band applies to `D19Q` ?
*A* top

*Q* Using the reported abundance fitness, which band applies to `V9C` ?
*A* bottom

Entry source: the Human Domainome abundance scans (Beltran et al. 2025)
